Data origin: the kinase profiling compilation of Christmann-Franck et al. (2016)

- assayedSystem: MATK (human) (UniProt P42679)
- Sequence (P42679 whole entry, looked up): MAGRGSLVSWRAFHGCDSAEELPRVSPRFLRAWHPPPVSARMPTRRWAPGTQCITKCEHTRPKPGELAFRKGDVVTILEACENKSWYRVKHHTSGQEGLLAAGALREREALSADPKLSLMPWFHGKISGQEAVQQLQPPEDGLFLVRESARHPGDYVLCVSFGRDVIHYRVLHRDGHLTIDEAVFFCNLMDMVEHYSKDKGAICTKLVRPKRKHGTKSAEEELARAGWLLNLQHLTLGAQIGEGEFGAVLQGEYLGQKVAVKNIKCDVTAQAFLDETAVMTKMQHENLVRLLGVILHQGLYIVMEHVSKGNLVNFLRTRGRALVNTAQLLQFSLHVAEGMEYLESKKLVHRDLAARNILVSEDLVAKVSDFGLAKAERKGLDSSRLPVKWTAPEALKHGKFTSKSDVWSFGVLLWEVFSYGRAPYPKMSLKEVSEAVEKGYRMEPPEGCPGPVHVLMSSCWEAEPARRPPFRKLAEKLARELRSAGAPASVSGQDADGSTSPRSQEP
- runDescription: radiometric filter-binding kinase assay, Kinase HotSpot
- conditionSummary: compound 0.5 µM; ATP 10 µM
experimentalReadout: residual activity (%)
Provide the reading as a plain figure in %.

>  <compoundStructure>
Oc1ccc(-c2nc(-c3ccc(F)cc3)c(-c3ccncc3)[nH]2)cc1

>  <measurementUnits>
%

>  <residual activity>
90.3

$$$$
>  <compoundStructure>
CC(C)[C@H](CO)Nc1nc(Nc2cccc(Cl)c2)c2ncn(C(C)C)c2n1

>  <measurementUnits>
%

>  <residual activity>
93.1

$$$$

Now look at this one.
### Prompt // returns reported residual activity for input Nc1n[nH]c2nnc(-c3c(-c4ccccc4)nn4ccccc34)cc12
### Response 95.6
